settings: in ethanol, 303.15 K
measured.metric: solubility (mole fraction)

INPUT: Identify solubility (mole fraction) associated with the compound NC(=O)N/N=C/c1ccc([N+](=O)[O-])o1
OUTPUT: 0.000165

---

settings: in ethanol, 293.15 K
measured.metric: solubility (mole fraction)
Answer field: number only, no words.

INPUT: In one line, give reported solubility (mole fraction) of the entry NC(=O)N/N=C/c1ccc([N+](=O)[O-])o1 .
OUTPUT: 0.000112

---

settings: in ethyl acetate, 283.15 K
measured.metric: solubility (mole fraction)
Give a plain numeric answer without units written out.

INPUT: Look up solubility (mole fraction) of NC(=O)N/N=C/c1ccc([N+](=O)[O-])o1 and report it.
OUTPUT: 8.31e-05

Each recorded value in this set is attributed to BigSolDB 2.1.
